- system tested: Poly [ADP-ribose] polymerase 1 (Homo sapiens, UniProt P09874)
- Sequence (P09874 whole entry): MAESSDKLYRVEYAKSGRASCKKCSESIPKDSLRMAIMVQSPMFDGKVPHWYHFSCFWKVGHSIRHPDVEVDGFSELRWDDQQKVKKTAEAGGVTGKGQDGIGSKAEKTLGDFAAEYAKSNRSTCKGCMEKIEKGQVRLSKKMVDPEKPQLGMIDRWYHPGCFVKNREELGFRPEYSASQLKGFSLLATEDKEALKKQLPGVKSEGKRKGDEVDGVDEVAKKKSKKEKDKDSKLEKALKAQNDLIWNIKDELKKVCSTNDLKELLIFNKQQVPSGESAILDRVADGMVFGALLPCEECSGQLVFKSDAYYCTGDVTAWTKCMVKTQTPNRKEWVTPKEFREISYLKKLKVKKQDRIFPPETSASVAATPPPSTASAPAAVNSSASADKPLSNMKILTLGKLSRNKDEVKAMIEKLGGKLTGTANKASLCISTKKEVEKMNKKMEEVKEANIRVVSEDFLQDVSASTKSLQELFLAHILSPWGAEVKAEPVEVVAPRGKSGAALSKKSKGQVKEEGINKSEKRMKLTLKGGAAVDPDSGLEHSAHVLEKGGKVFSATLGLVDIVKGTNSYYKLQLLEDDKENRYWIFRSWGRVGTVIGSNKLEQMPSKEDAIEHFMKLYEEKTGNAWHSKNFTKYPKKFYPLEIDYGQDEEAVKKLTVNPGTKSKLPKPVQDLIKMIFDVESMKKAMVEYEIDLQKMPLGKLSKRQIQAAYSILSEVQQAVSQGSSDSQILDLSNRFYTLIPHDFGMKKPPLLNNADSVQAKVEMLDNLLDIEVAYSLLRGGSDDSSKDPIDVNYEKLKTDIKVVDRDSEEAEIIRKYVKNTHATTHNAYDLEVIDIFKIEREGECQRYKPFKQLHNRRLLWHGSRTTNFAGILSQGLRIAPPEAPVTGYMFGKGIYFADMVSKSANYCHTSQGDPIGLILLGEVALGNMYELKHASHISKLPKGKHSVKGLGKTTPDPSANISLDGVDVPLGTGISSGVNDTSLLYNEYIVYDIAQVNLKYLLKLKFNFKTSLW
- test method notes: Inhibition of human recombinant PARP1 expressed in Escherichia coli BL21(DE3) incubated for 1 hr by ELISA assay
value type: pIC50
Recall that pIC50 is obtained by taking minus log10 of the concentration measured in molar.

Fill blank: measured pIC50 of the compound "COC(=O)CN1CCN(C(=O)c2cc(Cn3c(=O)[nH]c(=O)c4ccccc43)ccc2F)CC1=O" is ____.
8.05

Fill blank: measured pIC50 of the compound "CC(C)CCN1CCN(C(=O)c2cc(Cn3c(=O)[nH]c(=O)c4ccccc43)ccc2F)CC1=O" is ____.
8.52

Fill blank: measured pIC50 of the compound "CCC(CC)N1CCN(C(=O)c2cc(Cn3c(=O)[nH]c(=O)c4ccccc43)ccc2F)CC1=O" is ____.
8.41

Fill blank: measured pIC50 of the compound "CC(C)N1CCN(C(=O)c2cc(Cn3c(=O)[nH]c(=O)c4ccccc43)ccc2F)CC1=O" is ____.
8.30

Fill blank: measured pIC50 of the compound "CCCN1CCN(C(=O)c2cc(Cn3c(=O)[nH]c(=O)c4ccccc43)ccc2F)CC1=O" is ____.
7.93

Fill blank: measured pIC50 of the compound CC(C1CCCCC1)N1CCN(C(=O)c2cc(Cn3c(=O)[nH]c(=O)c4ccccc43)ccc2F)CC1=O (configuration not stated) is ____.
8.31

Fill blank: measured pIC50 of the compound "O=C1CN(C(=O)c2cc(Cn3c(=O)[nH]c(=O)c4ccccc43)ccc2F)CCN1CC1CCCCC1" is ____.
8.62

Fill blank: measured pIC50 of the compound "CC(C)=CCN1CCN(C(=O)c2cc(Cn3c(=O)[nH]c(=O)c4ccccc43)ccc2F)CC1=O" is ____.
8.01

Fill blank: measured pIC50 of the compound "O=C1CN(C(=O)c2cc(Cn3c(=O)[nH]c(=O)c4ccccc43)ccc2F)CCN1CCCO" is ____.
7.77

Fill blank: measured pIC50 of the compound "O=C1CN(C(=O)c2cc(Cn3c(=O)[nH]c(=O)c4ccccc43)ccc2F)CCN1" is ____.
8.36

Fill blank: measured pIC50 of the compound "CCC(CC)N1CCN(C(=O)c2cc(Cn3c(=O)[n-]c(=O)c4ccccc43)ccc2F)CC1=O.[Na+]" is ____.
9.03

Fill blank: measured pIC50 of the compound CC(C1CCCC1)N1CCN(C(=O)c2cc(Cn3c(=O)[nH]c(=O)c4ccccc43)ccc2F)CC1=O (configuration not stated) is ____.
8.44

Fill blank: measured pIC50 of the compound "C=CCN1CCN(C(=O)c2cc(Cn3c(=O)[nH]c(=O)c4ccccc43)ccc2F)CC1=O" is ____.
8.38

Fill blank: measured pIC50 of the compound "CN1CCN(C(=O)c2cc(Cn3c(=O)[nH]c(=O)c4ccccc43)ccc2F)CC1=O" is ____.
8.42

Fill blank: measured pIC50 of the compound CCC(C)N1CCN(C(=O)c2cc(Cn3c(=O)[nH]c(=O)c4ccccc43)ccc2F)CC1=O (configuration not stated) is ____.
8.42

Fill blank: measured pIC50 of the compound "O=C1CN(C(=O)c2cc(Cn3c(=O)[nH]c(=O)c4ccccc43)ccc2F)CCN1CCC1CC1" is ____.
8.68

Fill blank: measured pIC50 of the compound "CCN1CCN(C(=O)c2cc(Cn3c(=O)[nH]c(=O)c4ccccc43)ccc2F)CC1=O" is ____.
8.12
